- System: KARN cells (Jurkat 2C4)
- Method: cells
- Type: cell-based
- Settings: Homo sapiens, Jurkat, read-out: Karn EC50 (nM) 5% NHS, 5% normal human serum; luciferase induction, 100% = 2 μM SAHA
Label yes when EC50 is strictly below 200 nM; otherwise label no.

Problem: Quick check: EC50 of CCC(=O)CCCCC[C@H](NC(=O)[C@H]1CC[C@@]2(CC1)OC(=O)c1cnccc12)c1ncc(-c2ccccc2)[nH]1 under 200 nM?
Result: no

Problem: Quick check: EC50 of CCC(=O)CCCCC[C@H](NC(=O)[C@H]1CC12CCN(C)CC2)c1ncc(-c2ccc(-n3nc(C)cc3C)cc2)[nH]1 under 200 nM?
Result: no

Problem: Quick check: EC50 of CCC(=O)CCCCC[C@H](NC(=O)C1NC(=O)CC12CN(C(=O)OC(C)(C)C)C2)c1nnc(-c2cc3ccccc3nc2OC)o1 (stereo partly shown) under 200 nM?
Result: no

Problem: Quick check: EC50 of CCC(=O)CCCCC[C@H](NC(=O)[C@H]1CC12CCN(CC1CC1)CC2)c1ncc(-c2cc3ccccc3nc2OC)[nH]1 under 200 nM?
Result: yes

Problem: Quick check: EC50 of CCCN1CCC2(CC1)C[C@@H]2C(=O)N[C@@H](CCCCCC(=O)CC)c1ncc(-c2cc3ccccc3nc2OC)[nH]1 under 200 nM?
Result: no

Problem: Quick check: EC50 of CCC(=O)CCCCC[C@H](NC(=O)C1CC12CCN(CC)CC2)c1nc(-c2ccc(F)cc2)[nH]c1-c1ccn(C)c1 (stereo partly shown) under 200 nM?
Result: no

Problem: Quick check: EC50 of CCC(=O)CCCCC[C@H](NC(=O)C1CCC2(CC1)CN(C)C2)c1ncc(-c2cc3ccccc3nc2OC)[nH]1 under 200 nM?
Result: no

Problem: Quick check: EC50 of CCC(=O)CCCCC[C@H](NCC1CN(C)C1)c1ncc(-c2cc3ccc(C)nc3cc2OC)o1 under 200 nM?
Result: no

Problem: Quick check: EC50 of CCC(=O)CCCCC[C@H](NC(=O)C1=NOC2(CCN(S(C)(=O)=O)CC2)C1)c1nnc(-c2cc3ccccc3nc2OC)o1 under 200 nM?
Result: no

Problem: Quick check: EC50 of CCC(=O)CCCCCC(CC)(NC(=O)[C@H]1CC12CCN(CC1CC1)CC2)c1nc(-c2cc3ccc(C)nc3cc2OC)c[nH]1 (stereo partly shown) under 200 nM?
Result: no

Problem: Quick check: EC50 of CCC(=O)CCCCC[C@H](NC(=O)C1=NOC2(CCN(CC)CC2)C1)c1ncc(-c2cc3ccc(C)nc3cc2F)[nH]1 under 200 nM?
Result: no

Problem: Quick check: EC50 of CCC(=O)CCCCC[C@H](NC(=O)[C@H]1CC12CCN(Cc1ccc(OC)cc1)CC2)c1ncc(-c2cc3ccccc3nc2OC)[nH]1 under 200 nM?
Result: yes

Problem: Quick check: EC50 of CCC(=O)CCCCC[C@H](NC(=O)[C@@H]1CC12CCN(C)CC2)c1ncc(-c2cc3ccccc3nc2O)[nH]1 (single isomer, unassigned) under 200 nM?
Result: no

====

Give pIC50 for every item shown.
- Target Or System: Recombinant human HDAC1 (Homo sapiens, UniProt Q13547)
- Construct: FLAG (C); made in house
- Sequence (Q13547 whole entry): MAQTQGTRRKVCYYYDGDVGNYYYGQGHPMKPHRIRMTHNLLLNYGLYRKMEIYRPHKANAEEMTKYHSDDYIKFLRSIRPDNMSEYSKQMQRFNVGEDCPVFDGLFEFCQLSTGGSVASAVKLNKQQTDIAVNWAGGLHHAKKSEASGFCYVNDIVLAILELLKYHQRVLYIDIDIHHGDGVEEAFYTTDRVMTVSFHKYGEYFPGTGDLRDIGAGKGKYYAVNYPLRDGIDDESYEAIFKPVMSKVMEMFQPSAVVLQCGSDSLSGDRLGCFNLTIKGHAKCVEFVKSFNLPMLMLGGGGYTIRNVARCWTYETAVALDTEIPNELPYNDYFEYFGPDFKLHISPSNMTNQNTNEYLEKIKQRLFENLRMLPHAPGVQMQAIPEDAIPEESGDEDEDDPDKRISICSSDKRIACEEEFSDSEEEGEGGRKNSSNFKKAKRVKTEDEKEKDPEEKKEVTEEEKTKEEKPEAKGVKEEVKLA
- Method: Human HDAC enzyme inhibitor Fluor-de-Lys assay, HDAC1
- Format: biochemical
- Settings: recombinant human HDAC1, Fluor-de-Lys assay
In simple prose, pIC50 is minus the logarithm base ten of a concentration in moles per litre.

// CCC(=O)CCCCC[C@H](NC(=O)[C@H]1CC[C@@]2(CC1)OC(=O)c1cnccc12)c1ncc(-c2ccccc2)[nH]1 : pIC50 value = 7.02

// CCC(=O)CCCCC[C@H](NC(=O)CC1CC2(C1)CN(C)C2)c1ncc(-c2ccccc2)[nH]1 : pIC50 value = 7.20

// CCC(=O)CCCCC[C@H](NC(=O)[C@H]1CC12CCN(C)CC2)c1ncc(-c2cnc3cccnc3c2)[nH]1 : pIC50 value = 7.62

// CCC(=O)CCCCC[C@H](NC(=O)C1CC12CCOCC2)c1ncc(-c2cc3ccc(C)nc3cc2OC)[nH]1 (single isomer, unassigned) [Compound 407] : pIC50 value = 9.05

// CCC(=O)CCCCC[C@H](NC(=O)C1NC(=O)CC12CN(C(=O)OC(C)(C)C)C2)c1nnc(-c2cc3ccccc3nc2OC)o1 (stereo partly drawn) : pIC50 value = 7.31

// CCC(=O)CCCCC[C@H](NC(=O)C1=NOC2(CCN(C)CC2)C1)c1ncc(-c2cc3ccc(=O)n(C)c3cc2F)o1 : pIC50 value = 8.11

====

- Target Or System: Recombinant human HDAC8 (Homo sapiens)
- Construct: purchased Enzo Life Sciences BML-SE145-0100
- Sequence (Q9BY41 whole entry): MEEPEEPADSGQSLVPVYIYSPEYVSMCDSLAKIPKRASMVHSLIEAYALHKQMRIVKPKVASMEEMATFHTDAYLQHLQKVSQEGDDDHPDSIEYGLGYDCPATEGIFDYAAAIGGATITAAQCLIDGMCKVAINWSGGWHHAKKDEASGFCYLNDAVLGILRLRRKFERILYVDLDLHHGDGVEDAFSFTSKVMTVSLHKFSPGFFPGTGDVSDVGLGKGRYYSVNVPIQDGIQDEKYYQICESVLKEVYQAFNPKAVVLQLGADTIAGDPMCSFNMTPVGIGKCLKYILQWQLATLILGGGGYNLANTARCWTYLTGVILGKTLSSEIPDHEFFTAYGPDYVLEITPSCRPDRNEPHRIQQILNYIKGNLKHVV
- Method: Human HDAC enzyme inhibitor Fluor-de-Lys assay, HDAC8
- Assay type: biochemical
Label yes when IC50 is strictly below 20 µM; otherwise label no.

Problem: Quick check: IC50 of CCC(=O)CCCCC[C@H](NC(=O)[C@H]1CC12CCN(CC)CC2)c1ncc(-c2ccc(C)cc2OC)[nH]1 under 20 µM?
Result: yes

Problem: Quick check: IC50 of CCC(=O)CCCCC[C@H](NC(=O)[C@H]1CC12CCN(CC1CC1)CC2)c1ncc(-c2ccc3nc(C4CC4)ccc3c2)o1 under 20 µM?
Result: yes

Problem: Quick check: IC50 of CCC(=O)CCCCC[C@H](NC(=O)C1CN(C)C1)c1[nH]c(-c2ccc(F)cc2)nc1Br under 20 µM?
Result: no

Problem: Quick check: IC50 of CCC(=O)CCCCC[C@H](NC(=O)C1(C)CC12CCN(C(C)C)CC2)c1ncc(-c2ccc3nc(C)ccc3c2)[nH]1 (single isomer, unassigned) under 20 µM?
Result: yes

Problem: Quick check: IC50 of CCC(=O)CCCCC[C@H](NC(=O)[C@H]1CC[C@]2(CC1)OC(=O)c1ncccc12)c1ncc(-c2ccc3nc(C4CC4)ccc3c2)o1 under 20 µM?
Result: no

Problem: Quick check: IC50 of CC(O)C(=O)CCCCC[C@H](NC(=O)[C@H]1CC12CCN(C)CC2)c1nc(-c2ccc(F)cc2)c[nH]1 (stereo partly drawn) under 20 µM?
Result: yes

Problem: Quick check: IC50 of CCC(=O)CCCCC[C@H](NC(=O)[C@H]1CC12CCN(C(C)C)CC2)c1ncc(-c2cc3ccccc3nc2OC)o1 under 20 µM?
Result: no

Problem: Quick check: IC50 of CCC(=O)CCCCC[C@H](NC(=O)[C@H]1CC12CCN(CC)CC2)c1ncc(-c2ccc3nc(C4CC4)ccc3c2)[nH]1 under 20 µM?
Result: yes

Problem: Quick check: IC50 of CCC(=O)CCCCC[C@H](NC(=O)C1CC2(C1)CN(C)C2)c1ncc(-c2ccc3nn(C)cc3c2)[nH]1 under 20 µM?
Result: yes

Problem: Quick check: IC50 of CCC(=O)CCCCC[C@H](NC(=O)[C@H]1CC12CCN(C)CC2)c1ncc(-c2cc(OC)c3ccccc3n2)[nH]1 under 20 µM?
Result: yes

Problem: Quick check: IC50 of CCC(=O)CCCCC[C@H](NC(=O)[C@H]1CC12CCN(C(C)C)CC2)c1ncc(-c2ccc3nc(C)ccc3c2)[nH]1 under 20 µM?
Result: yes

====

- Target Or System: Recombinant human HDAC1 (Homo sapiens, UniProt Q13547)
- Construct: FLAG (C); made in house
- Method: Human HDAC enzyme inhibitor Fluor-de-Lys assay, HDAC1
- Type: biochemical
Label Yes when IC50 is strictly below 6 nM; otherwise label No.

Problem: Quick check: IC50 of CN1CCC2(CC1)C[C@@H]2C(=O)N[C@@H](CCCCCC(=O)CC(F)(F)F)c1ncc(-c2ccc(F)cc2)[nH]1 under 6 nM?
Result: No

Problem: Quick check: IC50 of CCC(=O)CCCCC[C@H](NC(=O)C1=NOC2(CCN(CC)CC2)C1)c1ncc(-c2cc3ccc(C)nc3cc2OC)o1 under 6 nM?
Result: Yes

Problem: Quick check: IC50 of CCC(=O)CCCCC[C@H](NC(=O)[C@H]1CC12CCN(C)CC2)c1nnc(-c2cc3ccc(C)nc3cc2OC)o1 under 6 nM?
Result: Yes

Problem: Quick check: IC50 of CCC(=O)CCCCC[C@H](NC(=O)[C@@]1(C)CC12CCN(C(C)C)CC2)c1ncc(-c2ccc3nc(C)ccc3c2)[nH]1 (single isomer, unassigned) under 6 nM?
Result: Yes

Problem: Quick check: IC50 of CCC(=O)CCCCC[C@H](NC(=O)[C@H]1CC12CCN(C)CC2)c1ncc(-c2cc3ccccc3nc2OC)o1 [Compound 125] under 6 nM?
Result: Yes

Problem: Quick check: IC50 of CCC(=O)CCCCC[C@H](NC(=O)C1CC12CCN(C)C(C)(C)C2)c1ncc(-c2ccc3nc(C)ccc3c2)[nH]1 (single isomer, unassigned) [Compound 130] under 6 nM?
Result: Yes
